target: Peroxisome proliferator-activated receptor gamma (Homo sapiens) (UniProt P37231); experiment: partial agonism at human PPARgamma receptor – cell-based, luciferase reporter, luminescence, primary screen (AID 504452); conditions: cell-based PPARg luciferase reporter, at 5 µM, stronger effect = higher value;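 also: Cos-1 cells carrying PPARgamma and a response element luciferase reporter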
Sequence (P37231 whole entry, looked up): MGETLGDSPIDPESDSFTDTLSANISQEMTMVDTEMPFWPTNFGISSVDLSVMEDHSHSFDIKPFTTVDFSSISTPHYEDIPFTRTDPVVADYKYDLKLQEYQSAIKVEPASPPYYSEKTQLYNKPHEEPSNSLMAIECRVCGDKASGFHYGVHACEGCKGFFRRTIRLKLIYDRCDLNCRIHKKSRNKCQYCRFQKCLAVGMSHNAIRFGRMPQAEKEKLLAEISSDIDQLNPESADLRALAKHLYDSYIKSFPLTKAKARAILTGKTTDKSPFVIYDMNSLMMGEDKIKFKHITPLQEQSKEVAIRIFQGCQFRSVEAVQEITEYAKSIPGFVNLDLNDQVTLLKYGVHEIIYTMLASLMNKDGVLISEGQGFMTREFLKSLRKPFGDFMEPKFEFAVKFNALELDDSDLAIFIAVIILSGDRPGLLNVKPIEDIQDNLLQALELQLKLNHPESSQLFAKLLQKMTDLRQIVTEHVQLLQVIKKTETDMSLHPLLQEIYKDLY
Assign class by activation (% of partial agonist control): not lower than 70% means satisfied; lower than 70% means not satisfied.

Some solved cases for reference:
COc1cccc(Cn2nc3c4cc(F)ccc4n(Cc4ccc(F)cc4)cc-3c2=O)c1    satisfied
Cc1cccc(N2CCN(C(=O)c3cccc(N4C(=O)C5CC=CC(C)C5C4=O)c3)CC2)c1C (stereo not given)    not satisfied
Nc1ccccc1SC1CC(=O)N(c2ccc3c(c2)OCO3)C1=O (stereo not given)    satisfied
COc1cc(C2/C(=C(/O)c3ccccc3)C(=O)C(=O)N2c2ccccn2)ccc1O (stereo not given)    not satisfied
C=CCSc1nnc(N2C(=O)C(O)=C(C(=O)c3ccco3)C2c2ccc(F)cc2)s1 (stereo not given)    not satisfied
O=C1C(=O)N(CC2CCCO2)C(c2ccco2)/C1=C(/O)c1ccc(F)cc1 (stereo not given)    not satisfied
O=C(COc1coc(CN2CCc3ccccc3C2)cc1=O)Nc1cccc(Cl)c1    not satisfied

We now examine a further molecule.
Hello, I need to know if O=C(CSc1nc(=O)n(CCN2CCOCC2)c2c1CCCC2)Nc1cccc([N+](=O)[O-])c1 has measured activation (% of partial agonist control) not below 70%. Thanks!
satisfied

* * *

List of activation (% of full agonist control) values.
target: Peroxisome proliferator-activated receptor gamma (Homo sapiens) (UniProt P37231); assay: partial agonism at human PPARgamma receptor – cell-based, luciferase reporter, luminescence, primary screen (AID 504452); conditions: cell-based PPARg luciferase reporter, at 5 µM, stronger effect = higher value; measured here: relative to full agonist control;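 also: Cos-1 cells carrying PPARgamma and a response element luciferase reporter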
Please make sure the unit comes right after the number.

// known answers, use as guide
O=c1[nH]c2cc3c(cc2cc1CN(Cc1ccccc1)Cc1nnnn1Cc1ccco1)OCCO3    35.1%
COC(=O)c1sc(N2C(=O)C(=O)/C(=C(/O)c3ccc(C)cc3)C2c2ccco2)nc1C (stereo not given)    37.7%
Cc1ccc(S(=O)(=O)Nc2ccccc2F)cc1C(=O)N1CCN(c2ccccc2O)CC1    33%
O=C(N[C@@H]1CCC(=O)N(CC[C@H](Oc2ccccc2)c2ccccc2)CC1)OCc1ccccc1    28.1%

Lookup result for Cc1cc(N2C(=O)C(O)=C(C(=O)c3ccc(C)o3)C2c2cccc(Oc3ccccc3)c2)no1 (stereo not given) ; measured activation (% of full agonist control): 34.1%

* * *

target: Peroxisome proliferator-activated receptor gamma (Homo sapiens); assay: partial agonism at human PPARgamma receptor – cell-based, luciferase reporter, luminescence, primary screen (AID 504452); conditions: cell-based PPARg luciferase reporter, at 5 µM, stronger effect = higher value;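 also: Cos-1 cells carrying PPARgamma and a response element luciferase reporter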
List of activation (% of partial agonist control) values.
Numeric only. Scale: %

Lookup result for CCC(=O)c1ccc(OCC(=O)OC(C)C(=O)Nc2c(C)n(C)n(-c3ccccc3)c2=O)cc1 (centres undefined) ; measured activation (% of partial agonist control): 89.5

Lookup result for OCCC1CN(Cc2cccn2-c2cccnc2)CCN1Cc1ccc(F)cc1 (centres undefined) ; measured activation (% of partial agonist control): 66

Lookup result for COC(=O)c1cc(C(=O)N2CCN(c3cccc(Cl)c3)CC2)cc([N+](=O)[O-])c1 ; measured activation (% of partial agonist control): 59.7

Lookup result for O=C(c1cccc(S(=O)(=O)Nc2ccccc2Cl)c1)N1CCN(c2ccccc2O)CC1 ; measured activation (% of partial agonist control): 63.2

Lookup result for Cc1cccc(NC(=O)CN2C(=O)/C(=C3\SC(=S)N(CC4CCCO4)C3=O)c3ccccc32)c1 (centres undefined) ; measured activation (% of partial agonist control): 95.8

These data points were gathered from PubChem BioAssay AID504452.
